Reported SGCB cell-surface expression functional score (log10) values are given for each entry in this list.
B1: library; numbered along this chain (parent)
chain: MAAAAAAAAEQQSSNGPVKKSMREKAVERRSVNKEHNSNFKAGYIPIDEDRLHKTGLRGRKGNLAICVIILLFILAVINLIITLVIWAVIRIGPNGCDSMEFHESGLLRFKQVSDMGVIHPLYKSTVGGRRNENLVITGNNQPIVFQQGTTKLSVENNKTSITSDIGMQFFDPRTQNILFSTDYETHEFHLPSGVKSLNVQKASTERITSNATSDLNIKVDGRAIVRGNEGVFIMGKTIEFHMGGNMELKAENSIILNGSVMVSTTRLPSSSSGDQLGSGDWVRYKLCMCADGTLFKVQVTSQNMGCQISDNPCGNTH

variants of: B1; experiment: SGCB cell-surface expression functional score (HA stain, bin4 vs bin1, normalised to synonymous) (log10 ratio); higher = more cell-surface SGCB (functional)
Write the number on its own, no unit after it.

Examples with answers:
| VARIANT | VALUE_MEASURED |
| --- | --- |
| G62P | 0.36 |
| A7H | -0.54 |
| T55N | 0.75 |
| L72S | -0.07 |
| V263C | 1 |
| S21Y | -0.19 |

Query block: Record request: SGCB cell-surface expression functional score (log10) value, item N15K
Result block: 0.05

Query block: Data request, read-out SGCB cell-surface expression functional score (log10), for D165V
Result block: 0.5

Query block: Please give the measured SGCB cell-surface expression functional score (log10) for this variant: P269E
Result block: 0

Query block: Look up SGCB cell-surface expression functional score (log10): D292F
Result block: -0.23

Query block: Record request: SGCB cell-surface expression functional score (log10) value, item A3Q
Result block: 0.11

Query block: Requested read-out: SGCB cell-surface expression functional score (log10). Entry: S13A
Result block: 0.2

Query block: Need SGCB cell-surface expression functional score (log10), item S154R
Result block: 0.01

Query block: Need SGCB cell-surface expression functional score (log10) of E230H , thanks.
Result block: 0.9

Query block: Given Q142L , state its recorded SGCB cell-surface expression functional score (log10).
Result block: -0.54

Query block: So what does the record say about SGCB cell-surface expression functional score (log10) for G59Y ?
Result block: 0.17
